In this section we review reported Ki values for a set of molecules.
Target: rat TAAR1 (Rattus norvegicus (Rat))
Sequence (Q923Y9 whole entry): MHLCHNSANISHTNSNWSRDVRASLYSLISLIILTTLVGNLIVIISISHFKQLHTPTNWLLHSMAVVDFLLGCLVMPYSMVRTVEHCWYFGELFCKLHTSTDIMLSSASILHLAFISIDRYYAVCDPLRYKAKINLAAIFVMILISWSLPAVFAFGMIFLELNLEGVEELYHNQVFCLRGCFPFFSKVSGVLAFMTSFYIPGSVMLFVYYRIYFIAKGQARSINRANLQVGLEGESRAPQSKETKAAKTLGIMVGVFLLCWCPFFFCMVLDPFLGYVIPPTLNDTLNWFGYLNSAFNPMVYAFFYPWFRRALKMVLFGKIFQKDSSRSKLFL
Experiment: Radioligand binding assay on rat TAAR1
Details: rat TAAR1, HEK-293 membranes; second value of the pair (line below); read-out: Ki (μM) mouse/rat
Structures can show the parent of a compound that is named as a salt.
Hi! Could you send only the number? It should be in µM, unit omitted.

CCOc1cc(C(=O)Nc2ccc([C@H]3CNCCO3)c(F)c2)ccn1 [Example 88, hydrochloride]: 0.0458
O=C(Nc1ccc(C2CCCNC2)cc1Cl)c1ccc(Cl)nc1 (racemic) [Example 43]: 0.367
Cc1nc(C(=O)Nc2ccc([C@H]3CNCCO3)c(F)c2)ccc1C#N [Example 136, hydrochloride]: 0.0585

Proceed to the following item.
According to the records, this molecule Cc1cc(C(=O)Nc2ccc([C@H]3CNCCO3)cc2F)cc(C(N)=O)n1 [Example 119, hydrochloride] displays Ki of 0.687

Origin of values: patent US9029370B2
